Tested on: XIP peptide (Xip251-270) binding
Assay: small-molecule binders of XIP peptide, primary screen, biochemical, small-molecule microarray, fluorescence 635/667 nm, 0.1 µg/mL protein (AID 1182)
Conditions: fluorescent protein binding, 635 nm, higher = more signal, called active from +8 up or from −8 down
Calls of active or inactive are those of the source.
measured-attribute: composite z-score

Examples from the recorded data:
NCCCCCNC(=O)[C@H]1C[C@H]2C(=O)N[C@@H](Cc3ccccc3)C(=O)N2[C@H]1c1ccc(O)cc1    1.46 (inactive)
[N-]=[N+]=Nc1ccccc1C[C@]1(C(=O)O)N=C(c2ccc(OCCCO)cc2)O[C@H]1c1ccccc1N=[N+]=[N-]    0.466 (inactive)
CN1C(=O)C2C=CC(C(O)c3cc(C(F)(F)F)cc(C(F)(F)F)c3)N(NC(=O)OC(C)(C)C)C2C1=O (stereo not given)    1.07 (inactive)
CC(C)C(CO)N1C(=O)[C@@H]2[C@H]3C(=O)OCC=C[C@H]3OC23C=CCN(C(C)(C)C)C(=O)[C@@H]13 (stereo not given in full)    0.0887 (inactive)
CC(C)CCC[C@@H](C)[C@H]1CC[C@@]2(C)C3=C(CC[C@]12C)[C@@]1(C)CC[C@H](OC(=O)c2ccccc2)C(C)(C)C1CC3 (stereo not given in full)    0.276 (inactive)

# lookup: CC(C)c1ccc(NN2C(C(O)Cc3ccccc3)C=CC3C(=O)N(c4ccccc4)C(=O)C32)cc1 (stereo not given) on XIP peptide (Xip251-270) binding, composite z-score = -0.0839 (inactive)

# lookup: COCCOC(=O)N1C(=O)[C@@]2(c3cc(C#CCC(C(=O)OC)C(=O)OC)ccc31)[C@H](C(=O)NC[C@H](O)c1ccccc1)[C@H]1C(=O)O[C@H](c3ccccc3)[C@H](c3ccccc3)N1[C@@H]2c1ccc(OCCO)cc1 on XIP peptide (Xip251-270) binding, composite z-score = 3.06 (inactive)

# lookup: CCCCCN1CC=CC23O[C@@H]4/C=C\CCC(C)OC(=O)C4[C@H]2C(=O)N(CCCCCCO)[C@@H]3C1=O (stereo not given in full) on XIP peptide (Xip251-270) binding, composite z-score = 0.185 (inactive)

# lookup: CC(C)[Si]1(C(C)C)OCc2cc(-c3ccc(-c4ccc(Cl)c(Cl)c4)o3)nc(CCc3ccccc3)c21 on XIP peptide (Xip251-270) binding, composite z-score = -0.218 (inactive)

# lookup: COc1cc(NN2C(C(O)c3ccc(I)cc3)C=CC3C(=O)N(c4ccccc4)C(=O)C32)cc(OC)c1OC (stereo not given) on XIP peptide (Xip251-270) binding, composite z-score = 0.204 (inactive)

Measured values drawn from PubChem BioAssay for this set.
